Target: T1, human DLL3 endogenously expressed on SCLC tumor cell lines SHP77 and NCI-H82 (human, UniProt Q9NYJ7 27-618)
T1 construct: whole, on cells; also called human DLL3 expressed on tumor cells
T1 sequence (looked up): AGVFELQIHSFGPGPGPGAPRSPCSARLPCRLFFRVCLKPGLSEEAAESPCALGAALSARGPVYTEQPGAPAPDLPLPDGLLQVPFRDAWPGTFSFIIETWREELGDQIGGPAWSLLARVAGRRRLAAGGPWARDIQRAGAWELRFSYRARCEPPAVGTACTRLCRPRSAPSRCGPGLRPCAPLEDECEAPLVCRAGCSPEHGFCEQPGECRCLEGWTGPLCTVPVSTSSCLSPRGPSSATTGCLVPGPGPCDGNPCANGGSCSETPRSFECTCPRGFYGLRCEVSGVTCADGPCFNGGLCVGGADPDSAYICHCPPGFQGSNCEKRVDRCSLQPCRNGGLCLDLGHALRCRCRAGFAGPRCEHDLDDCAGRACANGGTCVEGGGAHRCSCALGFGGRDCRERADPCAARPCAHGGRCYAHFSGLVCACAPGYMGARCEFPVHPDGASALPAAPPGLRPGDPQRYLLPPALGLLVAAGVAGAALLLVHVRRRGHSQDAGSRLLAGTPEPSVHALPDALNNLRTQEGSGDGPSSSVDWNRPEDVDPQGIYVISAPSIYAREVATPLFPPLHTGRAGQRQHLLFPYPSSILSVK
Assay: flow cytometry on SHP77 cells
MEASURED PARAMETER: binding result

BINDER	MEASURED PARAMETER	EXPERIMENTAL RESULT
310P3C5-z15p21 PTM removed humanized antibody (antibody, V domains shown, variable regions fused to the constant region of human IgG1) VH: QVQLVQSGAEVKKPGASVKVSCKASGYTFTDFYMNWVKQAPGQGLEWIGDANPNYGGTTHNPRFKGRATLTVDKSASTAYMELRSLRSEDTAVYYCARGGLPGDFDYWGQGTTVTVSS VL: DIQMTQSPSSLSASVGDRVTITCKASEDIYNRLAWYQQKPGKAPKLLISGVTSLETGVPSRFSGSGSGTDFTFTISSLQPEDIATYYCQQYWSFPWTFGGGTKVEIK	binding result	binds
310P3C5-z15p19 PTM removed humanized antibody (antibody, V domains shown, variable regions fused to the constant region of human IgG1) VH: QVQLVQSGAEVKKPGASVKVSCKASGYTFTDFYMNWVKQAPGQGLEWIGDANPNVGGTTHNPRFKGRATLTVDKSASTAYMELRSLRSEDTAVYYCARGGLPGDFDYWGQGTTVTVSS VL: DIQMTQSPSSLSASVGDRVTITCKASEDIYNRLAWYQQKPGKAPKLLISGVTSLETGVPSRFSGSGSGTDFTFTISSLQPEDIATYYCQQYWSFPWTFGGGTKVEIK	binding result	binds
310P3C5-z15p12 PTM removed humanized antibody (antibody, V domains shown, variable regions fused to the constant region of human IgG1) VH: QVQLVQSGAEVKKPGASVKVSCKASGYTFTDFYMNWVKQAPGQGLEWIGDANPNFGGTTHNPRFKGRATLTVDKSASTAYMELRSLRSEDTAVYYCARGGLPGDFDYWGQGTTVTVSS VL: DIQMTQSPSSLSASVGDRVTITCKASEDIYNRLAWYQQKPGKAPKLLISGVTSLETGVPSRFSGSGSGTDFTFTISSLQPEDIATYYCQQYWSFPWTFGGGTKVEIK	binding result	binds
